# System: DIV14
# run.description: qHTS profiling for inhibitors of Plasmodium falciparum proliferation (AID 504749); also: nearly all actives have a fitted effect of over 60% in size
# measurement.context: P. falciparum in erythrocytes, SYBR Green DNA, 72 h; series mostly up to 28.7 µM
Results filed as inconclusive are left out. Active and inactive are the calls of the source. Calls follow the shape of the dose curve; as a rule, active = well fitted inhibition curve with a large enough effect; inconclusive = small, poorly fitted or top-dose-only effect; inactive = flat fitted curve, though single readings scatter.
Log the outcome using a class from active, inactive

Reference set, count: 4
- smiles.code: "O=C(O)c1cc2cc(Cc3cccnc3)ccc2o1"
  target.of.assay: "DIV14"
  class: "inactive"
- smiles.code: "CCOc1ccc2nc3cc(N)ccc3c(N)c2c1"
  target.of.assay: "DIV14"
  class: "active"
- smiles.code: "CCCn1c(=O)[nH]c(=O)c2[nH]cnc21"
  target.of.assay: "DIV14"
  class: "inactive"
- smiles.code: "C#C[C@]1(OC(C)=O)CC[C@H]2[C@@H]3CCC4=C[C@@H](OC(C)=O)CC[C@@H]4[C@H]3CC[C@@]21C"
  target.of.assay: "DIV14"
  class: "inactive"

Answer briefly: the call reported for `CN=C(NC#N)NCCSCc1csc(N=C(N)N)n1` in this assay. inactive

Similarly, `CC(=O)N/N=C/c1ccc([N+](=O)[O-])o1` ? inactive

Let us now turn to `NC(=NCCCCCCN=C(N)/N=C(\N)Nc1ccc(Cl)cc1)/N=C(\N)Nc1ccc(Cl)cc1` active

FYI, the data here is from PubChem BioAssay (NCATS).
